binding signal: recorded values
Molecular target: T1, RBFOX1 RRM (Homo sapiens, UniProt Q9NWB1 109-208)
T1 sequence: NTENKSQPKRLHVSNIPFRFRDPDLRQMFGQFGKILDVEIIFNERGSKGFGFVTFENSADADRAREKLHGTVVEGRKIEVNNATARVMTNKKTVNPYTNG
Test: EMSA; HiTS-Eq, 1 nM pool, 10 min; buffer printed only for the single-RNA assays: 10 mM Tris pH 7.5, 150 mM NaCl, 3.4 mM EDTA, 0.001% NP-40, 30 C
Conditions: tags: His6 N-terminal (pET28a); label: 5' 32P
In all, about 16,000 sequences were measured (“ka relative to ugcaugu”: median about 0.0091, highest 2% from about 0.032 on). The sample as a whole holds a higher share of the highest values than the screen did.

A selection of reference data follows.
binder | reportedProperty | result
UUCUGAA (DNA:RNA) RNA: GGGAGACCGGAAUUCAGAUUGUCCUUCUGAAUUAAAUCCCGUCGUAGCCACCA DNA 1: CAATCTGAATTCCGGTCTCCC DNA 2: TGGTGGCTACGACGGGATT | binding signal | 0.0233 KA relative to UGCAUGU
UAGUUGG (DNA:RNA) RNA: GGGAGACCGGAAUUCAGAUUGUCCUAGUUGGUUAAAUCCCGUCGUAGCCACCA DNA 1: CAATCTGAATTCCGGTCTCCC DNA 2: TGGTGGCTACGACGGGATT | binding signal | 0.0164 KA relative to UGCAUGU
UUUCAGA (DNA:RNA) RNA: GGGAGACCGGAAUUCAGAUUGUCCUUUCAGAUUAAAUCCCGUCGUAGCCACCA DNA 1: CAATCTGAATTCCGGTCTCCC DNA 2: TGGTGGCTACGACGGGATT | binding signal | 0.0123 KA relative to UGCAUGU

Continue with the next binder.
The binder listed as UUGAUUG (DNA:RNA) RNA: GGGAGACCGGAAUUCAGAUUGUCCUUGAUUGUUAAAUCCCGUCGUAGCCACCA DNA 1: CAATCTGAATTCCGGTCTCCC DNA 2: TGGTGGCTACGACGGGATT has a reported binding signal of 0.0356 KA relative to UGCAUGU
